Molecular target: T1, UNK ZnF1-3 (human, UniProt Q9C0B0 31-174)
T1 sequence: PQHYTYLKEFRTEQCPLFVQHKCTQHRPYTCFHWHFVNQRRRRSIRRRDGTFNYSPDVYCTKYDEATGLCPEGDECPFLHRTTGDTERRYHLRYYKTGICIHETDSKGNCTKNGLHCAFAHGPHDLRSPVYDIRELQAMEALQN
Assay: nsRBNS (natural sequence RNA bind-n-seq); RBNS binding buffer (assumed for nsRBNS): 25 mM Tris pH 7.5, 150 mM KCl, 3 mM MgCl2, 0.01% Triton X-100, 500 ug/ml BSA, 20 U/ml SUPERase-In, 4 C; UNK is unkempt and MSI1 is Musashi-1; names of the RNAs are library labels; protein concentration not given here; high values mean tight binding
Whole data set: some 24,000 sequences, median “enrichment r” near 0.99, cut for the highest 2% near 3.7. The sample holds the highest values, similar sequences and a random draw of the others, so the mix is not that of the screen.
# if value of binding signal reaches 3 enrichment R, tag 1.0; if it stays below, tag 0.0

The examples below pair each entry with its known result.
Binder	Class name
chr2:121263671:121263672:+_ENSMUSG00000027248_ENSMUST00000028683|mus_mus|FALSE|FALSE (ssRNA) RNA: GGGAGUUCUACAGUCCGACGAUCAAAACGACAGUAUAAAGGGGGCACAUUUAUUGUCACUGUUCCAAAUGUACAAAAAAAAUUAGAAAAUAACCCCCCAACUCAAUUCCCCCCACCCCCACAACAUUCUUCCCAACACAAAUACAACAGAGGAUUGAGCAUCA	1.0
chr16:14299702:14299703:-_ENSMUSG00000022677_ENSMUST00000023357|mus_mus|motif|central (ssRNA) RNA: GGGAGUUCUACAGUCCGACGAUCCUCAAUUCAGAGUCCCUCUCCCCAAAUGACUCUAGCUUGUAUCAAGUUGAUAUAAAACGGGCCAGGGCAGGCAAUAAUAAUUCAGGUAUUUUUUAAAAAAUCAAACUUCAUAUAAAUUAACAACAGAGGAUUGAGCAUCA	1.0
chr10:123500321:123500322:-_ENSG00000107669_ENST00000369043|hu_mus|FALSE|FALSE (ssRNA) RNA: GGGAGUUCUACAGUCCGACGAUCGAUAUGCUAAGAAACCACACAAAACUGGCAUUUGCAAAUGGAUAAAAAUAGGAUAGAUUGCUUGAAAGAAAACAUAAACAAUAAUUUUAUCUAAAUAAUUUUAAUUGAGUGACUAUAUUCCAACAGAGGAUUGAGCAUCA	1.0
chr14:105707756:105707757:+_ENSMUSG00000053253_ENSMUST00000138283|mus_hu|motif|central (ssRNA) RNA: GGGAGUUCUACAGUCCGACGAUCAUUUAUUUUUCUUAUAAAGGACAUUUGGUAUUCCCACAUUUUCUUAAAAUUUGUCCGGAAACAAAUUCUAUCUUUAACACUCACGUUUCUAAAUAUAUAUAUGUGUGUGUGUAUAUAUAUCAACAGAGGAUUGAGCAUCA	0.0
chr16:14299702:14299703:-_ENSMUSG00000022677_ENSMUST00000023357|mus_mus|FALSE|FALSE (ssRNA) RNA: GGGAGUUCUACAGUCCGACGAUCCUCAAUUCAGAGUCCCUCUCCCCAAAUGACUCUAGCUUGUAUCAAGUUGAUAUAAAACUAGCCAGGGCAGGCAAUAAUAAUUCAGGUAUUUUUUAAAAAAUCAAACUUCAUAUAAAUUAACAACAGAGGAUUGAGCAUCA	1.0
75889693_75893847_892_3pUTR_ENSG00000185009_ENST00000355264|human|control|control (ssRNA) RNA: GGGAGUUCUACAGUCCGACGAUCCAGAUAGUUUAAUGCAAGCAUCAAUGACCCCCUGAAUUUCUGCAAAGACUGUAGAUCCUGAUUUAUCUAUAAUUGCGUCUAUUUCUUCAACAACAUCAAAAUAGGCUUCAUUGUUUGUGUCAACAGAGGAUUGAGCAUCA	0.0

Would you kindly look at the next entry?
Task: Does the reported binding signal for chr2:4828950:4828951:+_ENSMUSG00000026662_ENSMUST00000115019|mus_mus|FALSE|FALSE (ssRNA) RNA: GGGAGUUCUACAGUCCGACGAUCAAAAUCUAGUCUCCCCCAAUAAAUUGUAUUUUAGGCAAAAUCCUCCCAAAUGCUUCUAAAAUAAUACUAAAAAGGGCAUCUGAUUAUACAAGAGCAAUUAAAAAAAUUAAAUAUUUAUUUCAACAGAGGAUUGAGCAUCA fall at or above the 3 enrichment R mark?
Result: 1.0

# credit: paper PMC12136788
